Molecular target: HLA-B*5401 (Homo sapiens, UniProt P01889, A329T/C349S/D138N/D201E/E176V/E187T/E204Q/E69G/I76V/K202T/L119W/R155S/R180L/S121T/S35A/S48A/V127L/V306I/V36M/Y140L)
Test: biochemical
No end group written: not given here.
With a cut-off of 70 nM, any IC50 strictly below it is called t; any IC50 meeting it or above is called f.

Consider the worked cases shown below.
[[record]]
seq = "VPLQLPPL [29.0028]"
answer_label = "f"

[[record]]
seq = "IPYNPQSQGVV [1296.03]"
answer_label = "t"

[[record]]
seq = "HPVHAGPIA [1292.13]"
answer_label = "t"

[[record]]
seq = "FPISPIETV [Peptide 1261.01]"
answer_label = "t"

[[record]]
seq = "IPIHYCAPA [1296.01]"
answer_label = "t"


Task: Is IC50 strictly under 70 nM for the entry CPKVSFEPI [1296.02] ?
Output: f

###

Biological target: HLA-DRB1*0802 (DR8w2) (Homo sapiens, UniProt P01903+P01911, A100R/A103L/A169T/F76Y/H45Y/I96F/K41T/L162R/M171V/P40S/Q125H/Q178H/Q39Y/Q99D/R218S/R42G/S66Y/V115G/W38E)
Construct: endogenous in cells
Assay: biochemical
Type: binding
DR8w2 binding information for assorted sequences
Lab note: jot down the number only; don't add units.

[[record]]
seq = "IKKEKVYLA"
value_measured = "−0.0015"

[[record]]
seq = "IVTDSQYAL"
value_measured = "−0.0009"

[[record]]
seq = "ILRQRKTDR"
value_measured = 0.0270

[[record]]
seq = "IKQEFGIPY"
value_measured = "−0.0009"

[[record]]
seq = "VIQGNSDIK"
value_measured = "−0.0009"


Task: Could you tell me which DR8w2 binding information is on file for FYVDGAANR ?
Output: 0.0035

###

pIC50 values for the compounds below.
Target: HLA-DRB1*1201 (DR5w12) (Homo sapiens, UniProt P01903+P01911, A100R/A169T/D57E/D86V/F55L/H45Y/K41T/L162R/M171V/P40S/Q125H/Q178H/Q39Y/Q99D/R42G/S66L/T262R/V114A/V67L/W38E/Y59H/Y61H/Y89S)
Construct: endogenous in cells
Assay: purified HLA class II binding assay, DRB1*1201 (DR5w12)
# pIC50 = -log10(concentration in molar units)

Task: pIC50 for CC[C@H](C)[C@H](NC(=O)CNC(=O)[C@H](CCCCN)NC(=O)[C@H](Cc1c[nH]cn1)NC(=O)[C@H](C)NC(=O)[C@@H]1CCCN1C(=O)[C@@H](NC(=O)[C@H](Cc1c[nH]c2ccccc12)NC(=O)[C@H](C)NC(=O)[C@H](CC(C)C)NC(=O)[C@H](Cc1ccc(O)cc1)NC(=O)[C@@H](NC(=O)[C@@H](N)CCCCN)C(C)C)C(C)C)C(=O)NCC(=O)NCC(=O)O [Peptide 1280.03] ?
Output: 4.90

Task: What measured pIC50 goes with CC[C@H](C)[C@H](NC(=O)CNC(=O)[C@H](CCCCN)NC(=O)[C@H](Cc1c[nH]cn1)NC(=O)[C@H](C)NC(=O)[C@@H]1CCCN1C(=O)[C@@H](NC(=O)[C@H](Cc1c[nH]c2ccccc12)NC(=O)[C@H](C)NC(=O)[C@H](CC(C)C)NC(=O)[C@H](Cc1ccc(O)cc1)NC(=O)[C@@H](NC(=O)[C@H](CCCCN)NC(=O)[C@@H](N)CCC(=O)O)C(C)C)C(C)C)C(=O)NCC(=O)O [Peptide 27.0361] ?
Output: 5.19

Task: Recorded pIC50 of CC(C)C[C@H](NC(=O)[C@H](CCCCN)NC(=O)[C@@H](NC(=O)[C@H](CC(C)C)NC(=O)[C@@H]1CCCN1C(=O)[C@@H]1CCCN1C(=O)[C@@H](NC(=O)[C@H](CC(N)=O)NC(=O)[C@@H](NC(=O)[C@H](Cc1ccccc1)NC(=O)[C@H](CCC(=O)O)NC(=O)[C@@H](N)Cc1c[nH]c2ccccc12)C(C)C)[C@@H](C)O)C(C)C)C(=O)N[C@@H](Cc1c[nH]c2ccccc12)C(=O)N[C@@H](Cc1ccc(O)cc1)C(=O)N[C@@H](CCC(N)=O)C(=O)O [Peptide 27.0354] , please.
Output: 5.87

###

Molecular target: HLA-A*0206 (Homo sapiens, UniProt P04439, D140Y/D185E/D98H/E176V/E277Q/F33Y/G131W/G231S/I119V/I121R/I166T/I218V/L300P/L318F/N151K/N90K/P208A/P217A/Q86G/Q94H/R138H/R169H/T345S)
Test: purified HLA class I binding assay, A*0206
No end group written: not given here.
sequences and their reported IC50

Guide cases for IC50, answers given:
[[record]]
seq = "FLGAAGSTM [1211.05]"
value_measured = "4.11 µM"

[[record]]
seq = "KLNWASQIYA [25.0161]"
value_measured = "6.17 µM"


Task: Report IC50 for LLWKGEGAVV [1069.33] please.
Output: 0.771 µM

###

# IC50 listing for each entry below
Biological target: HLA-DRB1*1101 (DR5w11) (Homo sapiens, UniProt P01903+P01911, A100R/A169T/A87E/I96F/K41T/L162R/M171V/P40S/Q125H/Q178H/Q39Y/Q99D/R42S/S66Y/T262R/V115G/W38E)
Construct: endogenous in cells
Sequence (P01903 26-254, other chains not shown): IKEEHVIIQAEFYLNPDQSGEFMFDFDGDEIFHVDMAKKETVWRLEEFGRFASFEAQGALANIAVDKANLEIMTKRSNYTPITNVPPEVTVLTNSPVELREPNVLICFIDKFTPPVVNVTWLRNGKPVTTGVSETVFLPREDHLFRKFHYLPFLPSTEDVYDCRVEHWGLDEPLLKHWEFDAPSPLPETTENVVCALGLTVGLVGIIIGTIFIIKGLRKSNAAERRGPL
Test: biochemical
Type: binding
No end group written: not given here.
Unit nM implied. Number only.

[[record]]
seq = "QKQITKIQNFRVYYR [Peptide 27.0377]"
readout_name = "IC50"
unit_symbol = "nM"
value_measured = 53


Next:
Task: What does the data say about its IC50? Entry: HSNWRAMASDFNLPP [Peptide 27.0364]
Output: 95

###

Target: HLA-B*5301 (Homo sapiens, UniProt P01889, A329T/A93T/A95T/C349S/D201E/D98Y/E176V/E187L/E204Q/E69T/G107R/I218V/K202T/L105A/L119I/N104I/Q94N/R106L/R155S/R180L/S101N/S121R/S35A/S48A/T118I/V127L/V306I/V36M/Y140S/Y91F)
Assay: purified HLA class I binding assay, B*5301
No end group written: not given here.
Attribute: pIC50
pIC50 (log units): -log10 of the concentration in mol/L.

Example entries and their recorded answers appear below.
[[record]]
seq = "IPYNPQSQGVV [1296.03]"
value_measured = 4.33

[[record]]
seq = "HPVHAGPIA [1292.13]"
value_measured = 5.35

[[record]]
seq = "CPKVSFEPI [1296.02]"
value_measured = 5.61


Now consider a different sequence.
Task: For VPLQLPPL [29.0028] , what is its reported pIC50?
Output: 4.33

###

Listing of recorded A0301 (binding information, HIV A03 motif peptides) by entry.
Biological target: HLA-A*0301 (Homo sapiens, UniProt P04439)
Construct: endogenous in cells; host or cells: GM3107
Experiment: purified HLA class I binding assay, A*0301
Conditions: Table XVI; binding value for purified HLA-A*0301; unit not given

Example entries and their recorded answers appear below.
[[record]]
seq = "TAVQMAVFIII"
value_measured = 0.0004

[[record]]
seq = "MGYELIIPDK"
value_measured = 0.0640


Task: Quick one: A0301 (binding information, HIV A03 motif peptides) of KLVDFRELNK ?
Output: 0.5100

Task: Request the reported A0301 (binding information, HIV A03 motif peptides) associated with QLDCTIILEGK
Output: 0.0010

Task: Using the record for VAVIIVASGY , report its A0301 (binding information, HIV A03 motif peptides).
Output: 0.0004

###

Molecular target: HLA-A*0201 (Homo sapiens, UniProt P04439, D140Y/D185E/D98H/E176V/E277Q/G131W/G231S/I119V/I121R/I166T/I218V/L300P/L318F/N151K/N90K/P208A/P217A/Q86G/Q94H/R138H/R169H/T345S)
Test: purified HLA class I binding assay, A*0201
No end group written: not given here.
The reader will find reported IC50 values listed item by item below.
Numbers only here, please. The scale is µM.

[[record]]
seq = "WMTNNPPIPV [25.0139]"
readout_name = "IC50"
value_measured = 0.098


Next sequence, please.
Task: // returns reported IC50 for input FLGAAGSTM [1211.05]
Output: 0.0735

###

Molecular target: HLA-A*0301 (Homo sapiens, UniProt P04439)
Construct: endogenous in cells; host or cells: GM3107
Test: purified HLA class I binding assay, A*0301
Conditions: HIV POL-derived A03 motif peptides; binding value for purified HLA-A*0301, unit not given
readout-name: A0301 (HIV A03 Motif Peptides with Binding Information)
Form: value (number only, do not type unit).

# count of solved cases: 5
[[record]]
seq = "GIPIIPAGLKK"
value_measured = 0.0110

[[record]]
seq = "QVRDQAEIILK"
value_measured = 0.0089

[[record]]
seq = "IIVASGYIEA"
value_measured = 0.0003

[[record]]
seq = "KVKQWPLTEE"
value_measured = 0.0750

[[record]]
seq = "IVASCDKCQLK"
value_measured = 0.0970


Task: Requested field: A0301 (HIV A03 Motif Peptides with Binding Information). Item: TTPDKKIIQK
Output: 0.0002

Task: Dear colleague, I am looking for the recorded A0301 (HIV A03 Motif Peptides with Binding Information) of the following sequence: IILKTAVQMA
Output: 0.0003

Task: Return reported A0301 (HIV A03 Motif Peptides with Binding Information); argument: ASCDKCQLK
Output: 0.0027

Task: Which measured A0301 (HIV A03 Motif Peptides with Binding Information) value corresponds to VASCDKCQLK ?
Output: 0.0004

Measured values drawn from patent US20050271676A1 for this set.
